Target: T1, human IL-17A (construct not specified) (human, UniProt Q16552 24-155, limits assumed)
T1 construct: also called huIL-17A
T1 sequence: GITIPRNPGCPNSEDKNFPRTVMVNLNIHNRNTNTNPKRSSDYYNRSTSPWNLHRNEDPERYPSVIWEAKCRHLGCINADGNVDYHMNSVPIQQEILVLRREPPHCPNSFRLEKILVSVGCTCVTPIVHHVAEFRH
Test: ELISA, coated huIL-17A, crude Fab extract
Kindly state Classic ELISA (normalized to XAB1 Fab) for each of the entries shown.
Kindly provide the numeric value in fold only, without the unit symbol.

Query: Given MB456 (Fab, V domains shown, Fab variant of XAB1) VH: EVQLVESGGDLVQPGGSLRLSCAASGFTFSSYWMSWVRQAPGKGLEWVANIKQDGSEKYYVDSVKGRFTISRDNAKNSLYLQMNSLRAEDTAVYYCARDRGSLYYWGQGTLVTVSS VL: AIQLTQSPSSLSASVGDRVTITCRPSQGILWHLAWYQQKPGKAPKLLIYDASSLENGVPSRFSGSGSGTDFTLTISSLQPEDFATYYCQQFNSYPLTFGGGTKVEIK , state its recorded Classic ELISA (normalized to XAB1 Fab).
Result: 2.4

Query: Thanks! And MB448 (Fab, V domains shown, Fab variant of XAB1) VH: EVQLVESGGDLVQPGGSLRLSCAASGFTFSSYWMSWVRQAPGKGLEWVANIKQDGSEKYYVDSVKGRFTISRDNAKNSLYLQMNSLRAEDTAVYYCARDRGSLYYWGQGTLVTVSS VL: AIQLTQSPSSLSASVGDRVTITCRPSQGIVWMLAWYQQKPGKAPKLLIYDASSLENGVPSRFSGSGSGTDFTLTISSLQPEDFATYYCQQFNSYPLTFGGGTKVEIK ?
Result: 2.9

Origin of measurements: patent US20170291939A1
